RUN_DESCRIPTION: Pharmacokinetic measurement in mouse, single sc dose 30 nmol/kg, plasma ELISA
MEASUREMENT_CONDITIONS: single sc dose 30 nmol/kg

MOLECULE	Terminal t1/2 [h]
MLC005: fusion polypeptide SEQ ID NO: 252 conjugated with Moiety A at 12K of Linker (conjugate, Moiety A conjugated at linker K12) HGEGTFTSDVSSYLEEQAAREFIAWLVRGGGGQEPGQEPGQEKGQEPGQEPGQEPGQEPGQEPGAQPGAQPARQGDHCPLGPGRCCRLHTVRASLEDLGWADWVLSPREVQVTMCIGACPSQFRAANLHAQIKTSLHRLRPDTVPAPCCVPASYNPMVLIQRTDTGVSLQTYDDLLARDCHCI	4.2
